# credit: PubChem BioAssay (EPA / NIEHS)

- protocol_summary: STM_H9_CystineISnorm_perc: Stemina devTOX quickPredict H9 human embryonic stem cell (hESC)-based Assay for Cystine (CYSS) Metabolite Biomarker, Normalized (AID 2283713)
Calls of active or inactive are those of the source. Rule for the calls: active = hit-call score of the fitted dose curve at least 0.9, where 1 is the maximum; inactive = score below 0.9.
reported_endpoint: AC50

COc1ccc2c(c1)c(CC(=O)O)c(C)n2C(=O)c1ccc(Cl)cc1
inactive
O=c1c(O)c(-c2ccc(O)c(O)c2)oc2cc(O)cc(O)c12
inactive
CN1CCN(Cc2cc(-c3ccc4[nH]c(=O)oc4c3)co2)[C@@H](c2ccc(F)cc2)C1
5000 nM (active)
COc1ccc(S(=O)(=O)N2C(=O)[C@@](c3ccccc3OC)(N3C[C@H](O)C[C@H]3C(=O)N(C)C)c3cc(Cl)ccc32)c(OC)c1
inactive
Cc1c(C(=O)O)c(O)cc2c1C(=O)c1c(O)c([C@@H]3O[C@H](CO)[C@@H](O)[C@H](O)[C@H]3O)c(O)c(O)c1C2=O
inactive
CCCCc1ccc2c(n1)[C@@H](c1ccc(OC)cc1C[C@H](C)C(=O)O)[C@H](C(=O)O)[C@H]2c1ccc2c(c1)OCO2
inactive
O=C(O)Cc1ccccc1Nc1c(Cl)cccc1Cl
inactive
CCCc1cc(=O)[nH]c(=S)[nH]1
inactive
OC[C@@H](O)[C@@H](O)[C@H](O)[C@H](O)CO
inactive
Cc1oc(-c2ccccc2)nc1CCOc1cccc2c1ccn2CCC(=O)O
10.5 nM (active)

Which AC50 is listed for COC(=O)c1ccc(O)cc1 ?
inactive

Which AC50 is listed for COCCOCCOC ?
inactive

---

- study_target: human Elastase, ELANE (gene 1991) (UniProt P08246)
- Sequence (P08246 whole entry, looked up): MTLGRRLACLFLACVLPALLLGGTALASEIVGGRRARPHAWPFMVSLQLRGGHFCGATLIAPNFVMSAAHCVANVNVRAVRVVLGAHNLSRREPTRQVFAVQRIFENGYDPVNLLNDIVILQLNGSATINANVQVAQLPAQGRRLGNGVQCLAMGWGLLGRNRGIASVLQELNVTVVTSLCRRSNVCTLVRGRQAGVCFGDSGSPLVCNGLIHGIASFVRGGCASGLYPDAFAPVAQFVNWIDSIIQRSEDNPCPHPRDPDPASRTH
- protocol_summary: NVS_ENZ_hElastase: NovaScreen (NVS) Enzymatic Assay for human Elastase (AID 2283153)
- Description: NVS_ENZ_hElastase is a biochemical, single-readout assay that uses extracted gene-proteins from Human neutrophils in a cell-free assay. Measurements were taken 1.5 hours after chemical dosing in a 96-well plate.NVS_ENZ_hElastase is one of one assay component(s) measured or calculated from the NVS_ENZ_hElastase assay. […] This assay endpoint, NVS_ENZ_hElastase, was analyzed in the positive analysis fitting direction relative to DMSO as the negative control and baseline of activity. […]
Results filed as inconclusive are left out. Active and inactive are the calls of the source. Rule for the calls: active = hit-call score of the fitted dose curve at least 0.9, where 1 is the maximum; inconclusive = response in the unintended direction; inactive = score below 0.9.
reported_endpoint: AC50

The examples below pair each entry with its known result.
COc1cc(-c2nc(NC(=O)c3cc4cc(C)cc(C)c4n3CC(=O)O)sc2CCC2CCCCC2)c(OC)cc1Cl
5.61 µM (active)
CCCCC(CC)COC(=O)CC(C(=O)OCC(CC)CCCC)S(=O)(=O)O (centres undefined)
25 µM (active)
CCc1c(C(=O)NN2CCCCC2)nn(-c2ccc(Cl)cc2Cl)c1-c1ccc(Br)cc1
inactive
Cc1cccc(Nc2cc(Cl)nc(SCC(=O)O)n2)c1C
inactive
Nc1ccc2c(c1)C(=O)c1ccccc1C2=O
15.5 µM (active)

Which AC50 is listed for Cc1nc(-c2ccc3c(c2)CCN(CCC2CCC(NC(=O)/C=C/c4ccc(F)cc4)CC2)CC3)no1 (centres undefined) ?
18.3 µM (active)

Which AC50 is listed for Cc1oc(-c2ccccc2)nc1CCOc1cccc2c1ccn2CCC(=O)O ?
11.9 µM (active)

Which AC50 is listed for CCCCCCCCCCCCCCCCCC(=O)O ?
7.85 µM (active)

Which AC50 is listed for O=c1c(O)c(-c2ccc(O)c(O)c2)oc2cc(O)cc(O)c12 ?
inactive

---

- Read-out: Interleukin-8 (IL8), CXCL8 (gene 3576)
- protocol_summary: BSK_SAg_IL8: BioMAP Diversity Plus: SAg Assay for Interleukin-8 (IL8) Biomarker Activity (AID 2283094)
- condition_set: primary human HUVEC with PBMC; actives raise or lower the signal
Calls of active or inactive are those of the source. Rule for the calls: active = hit-call score of the fitted dose curve at least 0.9, where 1 is the maximum; inactive = score below 0.9.
reported_endpoint: AC50

CC(=O)OCCOCCOCCOC(C)=O
inactive
CC1(C)CC(N=C=O)CC(C)(CN=C=O)C1 (centres undefined)
inactive
CCc1c(C(=O)NN2CCCCC2)nn(-c2ccc(Cl)cc2Cl)c1-c1ccc(Br)cc1
7.03 µM (active)
Cc1oc(-c2ccccc2)nc1CCOc1cccc2c1ccn2CCC(=O)O
inactive

---

- Read-out: Pselectin, SELP (gene 6403)
- protocol_summary: BSK_4H_Pselectin: BioMAP Diversity Plus: 4H Assay for Pselectin Biomarker Activity (AID 2283026)
- condition_set: primary human endothelial cells (HUVEC); actives raise or lower the signal
Calls of active or inactive are those of the source. How the source made its calls: active means hit-call score of the fitted dose curve at least 0.9, where 1 is the maximum; inactive means score below 0.9.
Pick one and only one: active, inactive

Solved entries (count: 3):
Cc1ccc(C)c(O)c1C
inactive
C[C@]12C=CC(=O)C=C1CC[C@@H]1[C@@H]2C(=O)C[C@@]2(C)[C@H]1CC[C@]2(O)C(=O)CO
inactive
CC(C)c1ccc(C(=O)N=C(N)N)cc1S(C)(=O)=O
inactive

Record request — test call for CC(C)(C)c1cc(O)c(C(C)(C)C)cc1O
active

Record request — test call for CC(CO)OC(C)CO (stereo unspecified) (tested in a mixture with another compound)
inactive

Record request — test call for OC[C@@H](O)[C@@H](O)[C@H](O)[C@H](O)CO
inactive

---

- study_target: human Serotonin, 5-Hydroxytryptamine Receptor 6 (5HT6), HTR6 (gene 3362)
- protocol_summary: NVS_GPCR_h5HT6: NovaScreen (NVS) G Protein-Coupled Receptor Assay for human Serotonin, 5-Hydroxytryptamine Receptor 6 (5HT6) (AID 2283253)
Records with an inconclusive call do not appear. Active and inactive are the calls of the source. How the source made its calls: active means hit-call score of the fitted dose curve at least 0.9, where 1 is the maximum; inconclusive means response in the unintended direction; inactive means score below 0.9.
reported_endpoint: AC50

CN1CCN(Cc2cc(-c3ccc4[nH]c(=O)oc4c3)co2)[C@@H](c2ccc(F)cc2)C1
2.5 µM (active)
NCCO
inactive
NS(=O)(=O)c1cc2c(cc1Cl)NCNS2(=O)=O
inactive
NC(=O)Cn1c(=O)cc(CCN2CCN(c3nccc4sccc34)CC2)c2ccc(F)cc21
0.214 µM (active)

---

- protocol_summary: ATG_EGR_CIS: Attagene CIS-FACTORIAL HepG2 Assay for human Early Growth Response 1 (EGR1) (AID 2282938)
- condition_set: HepG2 Attagene CIS-FACTORIAL EGR reporter mRNA; actives raise or lower the signal
Calls of active or inactive are those of the source. The calls were made as follows: active = hit-call score of the fitted dose curve at least 0.9, where 1 is the maximum; inactive = score below 0.9.
Pick one and only one: active, inactive

NC(=O)Cn1c(=O)cc(CCN2CCN(c3nccc4sccc34)CC2)c2ccc(F)cc21
inactive

Record request — test call for Cc1ccc(C)c(O)c1C
inactive

Record request — test call for O=c1c(O)c(-c2ccc(O)c(O)c2)oc2cc(O)cc(O)c12
inactive

Record request — test call for CCCCOC(=O)CCCCCCCCC(=O)OCCCC
inactive

---

- Read-out: growth arrest and DNA damage 45 (GADD45B), GADD45B (gene 4616)
- protocol_summary: LTEA_HepaRG_GADD45B: Life Technologies and Expression Analysis (LTEA) Assay for growth arrest and DNA damage 45 (GADD45B) using HepaRG (AID 2283461)
- condition_set: mRNA level, 48 h; actives raise or lower the signal
Active and inactive are the calls of the source. Rule for the calls: active = hit-call score of the fitted dose curve at least 0.9, where 1 is the maximum; inactive = score below 0.9.
reported_endpoint: outcome

OC[C@@H](O)[C@@H](O)[C@H](O)[C@H](O)CO
inactive
O=C(OCCCCCOC(=O)c1ccccc1)c1ccccc1
inactive
O=C(O)CCCCC(=O)O
inactive
CCCCCCCCCCCC(=O)OC
inactive
CCCCCCCCCCCCCCCCCC(=O)O
inactive
CC(CO)OC(C)CO (configuration not stated) (tested in a mixture with another compound)
inactive

Which outcome is listed for CN1CCCC1=O ?
inactive

---

- protocol_summary: CCTE_Shafer_MEA_acute_per_network_burst_electrodes_number_mean: CCTE's Neural Acute Assay for Mean Number of Electrodes in a Network Burst, Shafer Lab (AID 2284021);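 note: curves fitted for decreases only so hits reduce electrodes per burst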
Calls of active or inactive are those of the source. How the source made its calls: active means hit-call score of the fitted dose curve at least 0.9, where 1 is the maximum; inactive means score below 0.9.
Pick one and only one: 1 (active), -1 (inactive)

Solved entries (count: 8):
c1cc(-c2ccncc2)ccn1
-1
NCC1(Cc2noc(=O)[nH]2)CCCCC1
-1
CCCCCCCCCCO
-1
COc1ccc(S(=O)(=O)N2C(=O)[C@@](c3ccccc3OC)(N3C[C@H](O)C[C@H]3C(=O)N(C)C)c3cc(Cl)ccc32)c(OC)c1
-1
NS(=O)(=O)c1cc2c(cc1Cl)NCNS2(=O)=O
-1
CC(=O)C(C)=CC1C(C)=CCCC1(C)C (stereo not drawn)
-1
CN[C@H]1CC[C@@H](c2ccc(Cl)c(Cl)c2)c2ccc(S(N)(=O)=O)cc21
1
O=C(O)CCCCC(=O)O
-1

Record request — test call for CC(=O)Oc1ccccc1C(=O)O
-1

Record request — test call for C=CCc1ccc(O)c(OC)c1
-1

Record request — test call for Nc1ccccc1N
-1

Record request — test call for Clc1cc(Cl)c(Cl)cc1Cl
-1

---

- Read-out: Insulin-like growth factor-binding protein 1 (IGFBP1), IGFBP1 (gene 3484)
- protocol_summary: LTEA_HepaRG_IGFBP1: Life Technologies and Expression Analysis (LTEA) Assay for Insulin-like growth factor-binding protein 1 (IGFBP1) using HepaRG (AID 2283508)
- condition_set: mRNA level, 48 h; actives raise or lower the signal
- Experimental: LTEA_HepaRG is a cell based, multiplexed-readout assay that uses HepaRG, a human liver cell line, with measurements taken at 48 hours after chemical dosing on a 96-well plate.LTEA_HepaRG_IGFBP1 is one of 102 assay component(s) measured in the LTEA HepaRG cell culture assay. It is a marker of Cell proliferation, survival, death.Data from the assay component LTEA_HepaRG_IGFBP1 was analyzed into 1 endpoint. […]
Activity calls are given as the source filed them. How the source made its calls: active means hit-call score of the fitted dose curve at least 0.9, where 1 is the maximum; inactive means score below 0.9.
reported_endpoint: AC50

The examples below pair each entry with its known result.
Cc1cc(=O)[nH]c(=S)[nH]1
inactive
CN1CCN(Cc2cc(-c3ccc4[nH]c(=O)oc4c3)co2)[C@@H](c2ccc(F)cc2)C1
inactive
NS(=O)(=O)c1cc2c(cc1Cl)NCNS2(=O)=O
inactive
NCC1(Cc2noc(=O)[nH]2)CCCCC1
inactive
CCc1c(C(=O)NN2CCCCC2)nn(-c2ccc(Cl)cc2Cl)c1-c1ccc(Br)cc1
31.6 µM (active)
Nc1ccccc1N
13.4 µM (active)
COc1cc(-c2nc(NC(=O)c3cc4cc(C)cc(C)c4n3CC(=O)O)sc2CCC2CCCCC2)c(OC)cc1Cl
3.83 µM (active)
CNC(=O)[C@H]1O[C@@H](n2cnc3c(NCc4cc(Cl)ccc4OCc4cc(C)no4)ncnc32)[C@H](O)[C@@H]1N
inactive

Which AC50 is listed for Cc1nc(-c2ccc3c(c2)CCN(CCC2CCC(NC(=O)/C=C/c4ccc(F)cc4)CC2)CC3)no1 (stereo not given) ?
inactive

Which AC50 is listed for C=CCOC(=O)c1ccccc1C(=O)OCC=C ?
inactive

Which AC50 is listed for O=C(O)Cc1ccccc1Nc1c(Cl)cccc1Cl ?
inactive

Which AC50 is listed for COCCOC[C@H](CC1(C(=O)NC2CCC(C(=O)O)CC2)CCCC1)C(=O)Oc1ccc2c(c1)CCC2 (stereo not given in full) ?
inactive

Which AC50 is listed for c1cc(-c2ccncc2)ccn1 ?
inactive

Which AC50 is listed for CCCCCCC(=O)OCC ?
inactive

Which AC50 is listed for C=CCc1ccc(O)c(OC)c1 ?
inactive

Which AC50 is listed for Oc1ccc2ccccc2c1N=Nc1ccccc1 ?
5.48 µM (active)

Which AC50 is listed for Cc1ccc(C)c(O)c1C ?
inactive

Which AC50 is listed for CC=Cc1ccc(O)c(OC)c1 ?
inactive

Which AC50 is listed for CCCCC(CC)COC(=O)CC(C(=O)OCC(CC)CCCC)S(=O)(=O)O (stereo not given) ?
90.7 µM (active)

Which AC50 is listed for CCOC(=O)CCC(=O)OCC ?
inactive

Which AC50 is listed for Cc1cc(NC(=O)C(=O)O)cc(C)c1Oc1ccc(O)c2c1CCC2 ?
inactive

Which AC50 is listed for COc1ccc(C)cc1N ?
inactive

Which AC50 is listed for CCCCCCCCCCO ?
inactive

Which AC50 is listed for CN[C@H]1CC[C@@H](c2ccc(Cl)c(Cl)c2)c2ccc(S(N)(=O)=O)cc21 ?
57.7 µM (active)

Which AC50 is listed for Nc1ccc(S(=O)(=O)c2ccc(N)cc2)cc1 ?
inactive
